Attribution: patent US20140161799A1

# Lookup of reported mean fluorescence relative to chimeric antibody keyed by entry
# assayed.target: T1, rat CD47 (rat, UniProt P97829 19-303)
# T1 construct: whole, on cells; also called CD47 on rat red blood cells
# T1 sequence (looked up): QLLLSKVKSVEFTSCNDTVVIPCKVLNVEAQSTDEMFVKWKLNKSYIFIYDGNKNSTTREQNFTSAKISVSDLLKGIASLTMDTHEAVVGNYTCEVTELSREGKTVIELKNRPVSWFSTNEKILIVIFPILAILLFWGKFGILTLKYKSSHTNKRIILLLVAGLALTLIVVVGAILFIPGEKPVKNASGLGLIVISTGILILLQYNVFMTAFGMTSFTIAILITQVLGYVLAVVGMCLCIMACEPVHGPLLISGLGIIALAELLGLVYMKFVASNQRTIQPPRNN
# assay.explanation: flow cytometry on RBCs, antibody 10 ng/ml

Worked examples, 2 binders total:
- binder: "pVxK7b-037-hum18-LC/pVxK7b-037-hum18-HC (antibody, human IgG1, V domains shown, Full-length human IgG1/kappa in CHO supernatant; Variable entries end within framework 4 (...FGQG / ...WGQG); also called Clone 18) VH: EVQLVQSGAEVKKPGESLRISCKGSGYTFTNYYVFWIRQSPSRGLEWLGDINPVNGDTNFNEKFKNRVTITADKSTSTAYMELSSLRSEDTAVYYCARGGYTMDYWGQG VL: EIVLTQSPATLSVSPGERATLSCRSSQSLVHSNGNTYLHWYQQKPGQAPRLLIYKVSYRFSGVPSRFSGSGSGTDFTFTISSLEAEDAATYYCSQNTHVPRTFGQG"
  result: "2.2 fold of chimera"
- binder: "pVxK7b-037-hum23-LC/pVxK7b-037-hum23-HC (antibody, human IgG1, V domains shown, Full-length human IgG1/kappa in CHO supernatant; Variable entries end within framework 4 (...FGQG / ...WGQG); also called Clone 23) VH: QVQLQESGPGLVKPSQTLSLTCTVSGYTFTNYYVFWVRQARGQRLEWIGDINPVNGDTNFNEKFKNRLTISKDTSKNQVVLTMTNMDPVDTATYYCARGGYTMDYWGQG VL: DIVMTQTPLSLPVTPGEPASISCRSSQSLVHSNGNTYLHWYQQKPGKAPKLLIYKVSYRFSGVPDRFSGSGSGTDFTLKISRVEAEDVGVYYCSQNTHVPRTFGQG"
  result: "3.3 fold of chimera"

Would you kindly look at the next entry?
Field mean fluorescence relative to chimeric antibody (entry pVxK7b-037-hum13-LC/pVxK7b-037-hum13-HC (antibody, human IgG1, V domains shown, Full-length human IgG1/kappa in CHO supernatant; Variable entries end within framework 4 (...FGQG / ...WGQG); also called Clone 13) VH: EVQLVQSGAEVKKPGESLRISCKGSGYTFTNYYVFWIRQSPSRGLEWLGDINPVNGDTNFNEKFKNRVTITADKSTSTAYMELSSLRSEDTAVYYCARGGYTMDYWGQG VL: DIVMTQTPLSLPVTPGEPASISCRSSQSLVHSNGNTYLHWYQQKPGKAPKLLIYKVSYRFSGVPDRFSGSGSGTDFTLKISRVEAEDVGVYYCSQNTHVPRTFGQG ) reads 3.1 fold of chimera
